The origin of these recorded values is ChEMBL document CHEMBL1139336.

Measured microsomal CLint, listed per entry.
Experiment: Intrinsic clearance in human liver microsomes
Format: ADME, Microsome
Numeric answer plus unit only.

> print(dat)
                                test.smiles  measurement.kind  reported.measurement
1  Cn1nc(C(C)(C)C)cc1NC(=O)C(C)(C)S(=O)(=O)c1ccc(Cl)cc1  microsomal CLint          14 µL/min/mg

Attention now turns to another entry.
The compound CC(C)(C(=O)Nc1ccc(Cl)c(C(F)(F)F)c1)S(=O)(=O)c1ccc(Cl)cc1 showed microsomal CLint equal to 14 µL/min/mg

----------
Molecular target: Cannabinoid receptor 2 (Homo sapiens, UniProt P34972)
Sequence (P34972 whole entry): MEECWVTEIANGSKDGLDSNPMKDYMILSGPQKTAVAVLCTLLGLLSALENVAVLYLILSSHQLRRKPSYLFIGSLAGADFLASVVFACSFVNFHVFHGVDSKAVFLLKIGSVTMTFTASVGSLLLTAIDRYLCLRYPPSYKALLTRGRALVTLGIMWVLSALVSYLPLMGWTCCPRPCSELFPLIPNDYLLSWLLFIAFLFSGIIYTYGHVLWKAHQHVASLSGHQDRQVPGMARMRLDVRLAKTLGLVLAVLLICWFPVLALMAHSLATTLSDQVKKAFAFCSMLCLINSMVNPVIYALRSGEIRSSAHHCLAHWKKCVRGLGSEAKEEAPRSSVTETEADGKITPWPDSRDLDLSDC
Experiment: Agonist activity at human CB2 receptor expressed in SF9 cells assessed as inhibition of CP-55940-stimulated GTP binding
pEC50: −log10 of the molar value.
Think of 7 as a floor: if pEC50 stands on it or above, it is rule met; beneath it, rule not met.

> print(dat)
                                test.smiles           cat
1  Cc1ccc(-c2cncc(NC(=O)C(C)(C)S(=O)(=O)c3ccc(Cl)cc3)c2)s1      rule met
2  Cc1ccccc1-c1nnc(NC(=O)C(C)(C)S(=O)(=O)c2ccc(Cl)cc2)s1  rule not met
3  CC(C)(C(=O)Nc1ccc(Cl)c(-c2ccco2)c1)S(=O)(=O)c1ccc(Cl)cc1      rule met
4  Cc1cc(NC(=O)C(C)(C)S(=O)(=O)c2ccc(Cl)cc2)no1  rule not met
5  CC(C)(C(=O)Nc1cnc2ccccc2c1)S(=O)(=O)c1ccc(Cl)cc1      rule met

Now consider a different compound.
pEC50 >= 7 for CC(C)(C(=O)Nc1ccc(Cl)cc1OC(F)(F)F)S(=O)(=O)c1ccc(Cl)cc1 ? rule not met

----------
Assay: Clearance in Sprague-Dawley rat at 0.5 mg/kg, iv
Assay type: ADME, organism-based
Set-up: dose 0.5 mg/kg, route intravenous
Settings: in vivo
Measured clearance, listed per entry.
Give your result in mL/min/kg as a bare value.

> print(dat)
                                test.smiles  value.units  reported.measurement
1  Cn1nc(C(C)(C)C)cc1NC(=O)C(C)(C)S(=O)(=O)c1ccc(Cl)cc1    mL/min/kg                    20

Attention now turns to another entry.
The molecule CC(C)(C(=O)Nc1ccc(Cl)c(C(F)(F)F)c1)S(=O)(=O)c1ccc(Cl)cc1 showed clearance equal to 9

----------
Target: Cannabinoid receptor 2 (Homo sapiens)
Test: Agonist activity at human CB2 receptor expressed in CHO cells assessed as suppression of forskolin-stimulated cAMP accumulation
Assay type: functional, cell-based
measurement-kind: EC50 (nM)
Give your result in nM as a bare value.

> print(dat)
                                test.smiles  measurement.kind  reported.measurement
1  CC(C)(C(=O)Nc1cnc2ccccc2c1)S(=O)(=O)c1ccc(C(F)(F)F)cc1Cl              EC50                    73
2  CC(C)(C)c1cc(NC(=O)C(C)(C)S(=O)(=O)c2ccc(Cl)cc2)no1              EC50                    11
3  CC(C)(C(=O)Nc1ccc(Cl)c(C(F)(F)F)c1)S(=O)(=O)c1ccc(Cl)cc1              EC50                     5
4  Cc1ccc(-c2cncc(NC(=O)C(C)(C)S(=O)(=O)c3ccc(Cl)cc3)c2)s1              EC50                     5

The compound CC(C)(C(=O)Nc1cccc(C(F)(F)F)c1)S(=O)(=O)c1ccc(Cl)cc1 showed EC50 equal to 35

The compound CC(C)(C(=O)Nc1cnc2ccccc2c1)S(=O)(=O)c1ccc(C(F)(F)F)cc1 showed EC50 equal to 8

The compound CC(C)(C(=O)Nc1cnc2ccccc2c1)S(=O)(=O)c1ccc(Cl)cc1 showed EC50 equal to 13

The compound Cn1nc(C(C)(C)C)cc1NC(=O)C(C)(C)S(=O)(=O)c1ccc(Cl)cc1 showed EC50 equal to 25

The compound CC(C)(C(=O)Nc1cnc2ccccc2c1)S(=O)(=O)c1ccc(F)cc1 showed EC50 equal to 33

The compound CC(C)(C(=O)Nc1ccc(C(F)(F)F)cc1)S(=O)(=O)c1ccc(Cl)cc1 showed EC50 equal to 57

The compound CC(C)(C(=O)Nc1ccc(Cl)c(-c2ccco2)c1)S(=O)(=O)c1ccc(Cl)cc1 showed EC50 equal to 5

----------
Measured Emax, listed per entry.
Target: Cannabinoid receptor 2 (Homo sapiens)
Assay: Agonist activity at human CB2 receptor expressed in CHO cells assessed as suppression of forskolin-stimulated cAMP accumulation relative to control
Assay type: functional, cell-based
Give your result in % as a bare value.

Worked cases, answers included:
> print(dat)
                                test.smiles  value.units  reported.measurement
1  CC(C)(C(=O)Nc1cccc(C(F)(F)F)c1)S(=O)(=O)c1ccc(Cl)cc1            %                    93
2  Cn1nc(C(C)(C)C)cc1NC(=O)C(C)(C)S(=O)(=O)c1ccc(Cl)cc1            %                    92
3  CC(C)(C)c1cc(NC(=O)C(C)(C)S(=O)(=O)c2ccc(Cl)cc2)no1            %                    85
4  CC(C)(C(=O)Nc1ccc(Cl)c(C(F)(F)F)c1)S(=O)(=O)c1ccc(Cl)cc1            %                    96
5  CC(C)(C(=O)Nc1cnc2ccccc2c1)S(=O)(=O)c1ccc(C(F)(F)F)cc1Cl            %                    94

The compound CC(C)(C(=O)Nc1ccc(C(F)(F)F)cc1)S(=O)(=O)c1ccc(Cl)cc1 showed Emax equal to 93

The compound CC(C)(C(=O)Nc1ccc(Cl)c(-c2ccco2)c1)S(=O)(=O)c1ccc(Cl)cc1 showed Emax equal to 101

The compound CC(C)(C(=O)Nc1cnc2ccccc2c1)S(=O)(=O)c1ccc(F)cc1 showed Emax equal to 97

----------
Assay: Protein binding in human plasma
Format: ADME, cell-free
Conditions: read-out: PPB (converted)
Measured fraction unbound, listed per entry.
Answer as a number with no unit attached.

The compound CC(C)(C(=O)Nc1ccc(Cl)c(C(F)(F)F)c1)S(=O)(=O)c1ccc(Cl)cc1 showed fraction unbound equal to 0.002

The compound Cn1nc(C(C)(C)C)cc1NC(=O)C(C)(C)S(=O)(=O)c1ccc(Cl)cc1 showed fraction unbound equal to 0.064

----------
Assay: AUC (0 to infinity) in Sprague-Dawley rat at 10 mg/kg, po
Assay type: ADME, organism-based
Design: time infinity, dose 10 mg/kg, route oral
Conditions: plasma
measurement-kind: AUC(0-inf) (ng·h/mL)
Give your result in ng·h/mL as a bare value.

> print(dat)
                                test.smiles  value.units  reported.measurement
1  Cn1nc(C(C)(C)C)cc1NC(=O)C(C)(C)S(=O)(=O)c1ccc(Cl)cc1      ng·h/mL                  3570

Attention now turns to another entry.
The compound CC(C)(C(=O)Nc1ccc(Cl)c(C(F)(F)F)c1)S(=O)(=O)c1ccc(Cl)cc1 showed AUC(0-inf) equal to 9680

----------
Biological target: Cannabinoid receptor 1 (Homo sapiens)
Sequence (P21554 whole entry): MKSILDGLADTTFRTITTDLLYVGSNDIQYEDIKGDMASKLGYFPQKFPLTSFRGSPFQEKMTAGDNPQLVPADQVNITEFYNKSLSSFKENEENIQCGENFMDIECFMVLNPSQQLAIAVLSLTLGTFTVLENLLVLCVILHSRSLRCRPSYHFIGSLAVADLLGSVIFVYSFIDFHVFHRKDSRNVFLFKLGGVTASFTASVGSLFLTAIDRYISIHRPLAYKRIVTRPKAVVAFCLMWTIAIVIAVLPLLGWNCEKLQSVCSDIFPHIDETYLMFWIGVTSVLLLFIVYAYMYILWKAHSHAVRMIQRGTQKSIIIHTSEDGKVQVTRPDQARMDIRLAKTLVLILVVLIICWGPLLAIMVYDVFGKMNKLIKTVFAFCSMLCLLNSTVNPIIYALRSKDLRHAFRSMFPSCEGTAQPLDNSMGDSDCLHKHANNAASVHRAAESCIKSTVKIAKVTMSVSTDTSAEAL
Assay: Agonist activity at human CB1 receptor expressed in SF9 cells assessed as inhibition of CP-55940-stimulated GTP binding relative to control
measurement-kind: Emax (%)
Give your result in % as a bare value.

Worked cases, answers included:
> print(dat)
                                 test.smiles                              tested.on  reported.measurement
 1  CC(C)(C(=O)Nc1ccc(Cl)c(-c2ccco2)c1)S(=O)(=O)c1ccc(Cl)cc1  Cannabinoid receptor 1 (Homo sapiens)                    82
 2  CC(C)(C(=O)Nc1cnc2ccccc2c1)S(=O)(=O)c1ccc(Cl)cc1  Cannabinoid receptor 1 (Homo sapiens)                    47
 3  CC(C)(C(=O)Nc1cnc2ccccc2c1)S(=O)(=O)c1ccc(F)cc1Cl  Cannabinoid receptor 1 (Homo sapiens)                     7
 4  CC(C)(C(=O)Nc1cnc2ccccc2c1)S(=O)(=O)c1ccc(F)cc1  Cannabinoid receptor 1 (Homo sapiens)                    22
 5  CC(C)(C(=O)NCc1ccccc1)S(=O)(=O)c1ccc(Cl)cc1  Cannabinoid receptor 1 (Homo sapiens)                     7
 6  Cc1cnc(NC(=O)C(C)(C)S(=O)(=O)c2ccc(Cl)cc2)s1  Cannabinoid receptor 1 (Homo sapiens)                     7
 7  CC(C)(C(=O)Nc1cnc2ccccc2c1)S(=O)(=O)c1ccc(C(F)(F)F)cc1Cl  Cannabinoid receptor 1 (Homo sapiens)                    71
 8  Cc1cc(NC(=O)C(C)(C)S(=O)(=O)c2ccc(Cl)cc2)no1  Cannabinoid receptor 1 (Homo sapiens)                     1
 9  CC(C)(C(=O)Nc1ccc(Cl)c(C(F)(F)F)c1)S(=O)(=O)c1ccc(Cl)cc1  Cannabinoid receptor 1 (Homo sapiens)                    22
10  CC(C)(C(=O)Nc1ccc(C(F)(F)F)cc1)S(=O)(=O)c1ccc(Cl)cc1  Cannabinoid receptor 1 (Homo sapiens)                    14

The compound CC(C)(C(=O)Nc1cnc2ccccc2c1)S(=O)(=O)c1ccc(C(F)(F)F)cc1 showed Emax equal to 86

The compound COc1ccc(S(=O)(=O)C(C)(C)C(=O)Nc2cnc3ccccc3c2)c(Cl)c1 showed Emax equal to 12
